Reference for the values: patent US20230172206A1

# Tested on: Phakopsora pachyrhizi (F129L)
# procedure-text: Protective control of soybean rust on soybeans (PHAKPA P2)
# Format: in vivo
# test-settings: protective P2, 16 ppm, soybean rust F129L isolate
Give % PHAKPA (F129L) Disease level P2 at 16 ppm for every item shown.
Form field: result (number plus unit)

Field: example entries. Status: answers known.
item-smiles | meas-value
CNC(=O)/C(=N/OC)c1cccc(C)c1CO/N=C(\C)c1ccc(Cl)cc1OC(F)(F)F | 8%
CNC(=O)/C(=N/OC)c1cccc(C)c1CO/N=C(\C)c1cc(Br)cc(F)c1F | 0%
CO/N=C(/C(=O)OC)c1cccc(C)c1CO/N=C(\C)c1ccc(C)c(C(F)(F)F)c1 | 2%
CO/N=C(/C(=O)OC)c1cccc(C)c1CO/N=C(\C)c1ccc(F)cc1F | 18%
CO/N=C(/C(=O)OC)c1cccc(C)c1CO/N=C(\C)c1ccccc1C(C)C | 87%
CO/N=C(/C(=O)OC)c1cccc(C)c1CO/N=C(\C)c1c(F)cccc1C(F)(F)F | 15%

Give % PHAKPA (F129L) Disease level P2 at 16 ppm for all molecules that follow.
1. CNC(=O)/C(=N/OC)c1cccc(C)c1CO/N=C(\C)c1ccc(Oc2ccc(Cl)cc2)cc1C(F)(F)F
2. CNC(=O)/C(=N/OC)c1cccc(C)c1CO/N=C(\C)c1ccccc1C(C)C

Response given:
20%
30%

---

# Test system: Phakopsora pachyrhizi (F129L)
# procedure-text: Protective control of soybean rust on soybeans (PHAKPA P6)
# Assay type: in vivo
# test-settings: protective P6, 16 ppm, soybean rust F129L isolate
property-label: % PHAKPA (F129L) Disease level P6 at 16 ppm (%)
One number for each entry, in %.

Give % PHAKPA (F129L) Disease level P6 at 16 ppm for all molecules that follow.
1. CO/N=C(/C(=O)OC)c1cccc(C)c1CO/N=C(\C)c1ccc(OC(F)(F)F)cc1F [compound 269]
2. CNC(=O)/C(=N/OC)c1cccc(C)c1CO/N=C(\C)c1ccc(F)cc1F [compound 267]
3. CNC(=O)/C(=N/OC)c1cccc(C)c1CO/N=C(\C)c1cc(F)ccc1Br [compound 248]
4. CO/N=C(/C(=O)OC)c1cccc(C)c1CO/N=C(\C)c1cc(Br)cc(F)c1F [compound 240]

Response given:
1: 0; 2: 4; 3: 2; 4: 3

---

# Tested on: Phakopsora pachyrhizi (F129L)
# procedure-text: Protective control of soybean rust on soybeans (PHAKPA P2)
# Format: in vivo
# test-settings: protective P2, 4 ppm, F129L isolate
Mark 0 for % PHAKPA (F129L) Disease level P2 at 4 ppm values under 30%, and 1 for everything at or above.

Study these solved cases before continuing.
molecule | test-target | assigned-category
CNC(=O)/C(=N/OC)c1cccc(OC)c1CO/N=C(\C)c1cccc(C(F)(F)F)c1 [compound 461] | Phakopsora pachyrhizi (F129L) | 0
CNC(=O)/C(=N/OC)c1cccc(C)c1CO/N=C(/c1ccccc1)C(F)(F)F [compound 458] | Phakopsora pachyrhizi (F129L) | 1
CNC(=O)/C(=N/OC)c1cccc(C)c1CO/N=C(\CC(F)(F)F)c1ccccc1 [compound 380] | Phakopsora pachyrhizi (F129L) | 1
CO/C=C(/C(=O)OC)c1cccc(C)c1CO/N=C(\C)c1ccc(F)c(F)c1OC(F)(F)F [compound 450] | Phakopsora pachyrhizi (F129L) | 0

Challenge: Textbook exercise: given the entry CO/C=C(/C(=O)OC)c1cccc(C)c1CO/N=C(\C)c1cc(F)c(F)cc1CC(F)(F)F [compound 405] , state whether its % PHAKPA (F129L) Disease level P2 at 4 ppm is greater than or equal to 30%.
Response given: 1

Challenge: Textbook exercise: given the entry CO/C=C(/C(=O)OC)c1cccc(C)c1CO/N=C(\C)c1ccc(OC)cc1C(F)(F)F [compound 464] , state whether its % PHAKPA (F129L) Disease level P2 at 4 ppm is greater than or equal to 30%.
Response given: 0

Challenge: Textbook exercise: given the entry CNC(=O)/C(=N/OC)c1cccc(C)c1CO/N=C(\C)c1ccc(F)cc1CC(F)(F)F [compound 394] , state whether its % PHAKPA (F129L) Disease level P2 at 4 ppm is greater than or equal to 30%.
Response given: 0

---

# Test system: Phakopsora pachyrhizi (F129L)
# procedure-text: Protective control of soybean rust on soybeans (PHAKPA P6)
# Assay type: in vivo
# test-settings: protective P6, 4 ppm, F129L isolate
Each entry falls into one class according to its % PHAKPA (F129L) Disease level P6 at 4 ppm; the ranges are bin A = under 40%, bin B = from 40% up to 80%, bin C = 80% and over

Study these solved cases before continuing.
item-smiles | assigned-category
CO/C=C(/C(=O)OC)c1cccc(C)c1CO/N=C(\C)c1ccc(OC(F)(F)F)cc1Cl | bin A
CCC/C(=N\OCc1c(C)cccc1/C(=N\OC)C(=O)NC)c1ccccc1 | bin A
CO/N=C(/C)c1ccc(/C(C)=N/OCc2c(C)cccc2/C(=N\OC)C(=O)OC)c(C(F)(F)F)c1 | bin B
CNC(=O)/C(=N/OC)c1cccc(C)c1CO/N=C(/c1ccccc1)C(F)(F)F | bin C

Challenge: Each compound maps to one class by % PHAKPA (F129L) Disease level P6 at 4 ppm. Which class for `CO/N=C(/C(=O)OC)c1cccc(C)c1CO/N=C(\C)c1c(Cl)cc(Cl)cc1OC(F)(F)F` ?
Response given: bin B

Challenge: Each compound maps to one class by % PHAKPA (F129L) Disease level P6 at 4 ppm. Which class for `CNC(=O)/C(=N/OC)c1cccc(C)c1CO/N=C(\C)c1ccc(F)cc1CC(F)(F)F` ?
Response given: bin A

Challenge: Each compound maps to one class by % PHAKPA (F129L) Disease level P6 at 4 ppm. Which class for `CO/N=C(/C(=O)OC)c1cccc(C)c1CO/N=C(\C)c1ccc(C#N)cc1C(F)(F)F` ?
Response given: bin C

Challenge: Each compound maps to one class by % PHAKPA (F129L) Disease level P6 at 4 ppm. Which class for `CNC(=O)/C(=N/OC)c1cccc(C)c1CO/N=C(/c1ccccc1)C(C)C` ?
Response given: bin B

Challenge: Each compound maps to one class by % PHAKPA (F129L) Disease level P6 at 4 ppm. Which class for `CO/C=C(/C(=O)OC)c1cccc(C)c1CO/N=C(\C)c1ccc(OC)cc1C(F)(F)F` ?
Response given: bin A

Challenge: Each compound maps to one class by % PHAKPA (F129L) Disease level P6 at 4 ppm. Which class for `CNC(=O)/C(=N/OC)c1cccc(C)c1CO/N=C(\C)c1ccc(/C(C)=N\OC)cc1OC(F)(F)F` ?
Response given: bin B

Challenge: Each compound maps to one class by % PHAKPA (F129L) Disease level P6 at 4 ppm. Which class for `CNC(=O)/C(=N/OC)c1cccc(C)c1CO/N=C(\C)c1cc(F)c(F)cc1C(F)(F)F` ?
Response given: bin A

Challenge: Each compound maps to one class by % PHAKPA (F129L) Disease level P6 at 4 ppm. Which class for `CNC(=O)/C(=N/OC)c1cccc(C)c1CO/N=C(\C)c1ccc(-c2ccc(F)cc2)cc1C(F)(F)F` ?
Response given: bin A

Challenge: Each compound maps to one class by % PHAKPA (F129L) Disease level P6 at 4 ppm. Which class for `CNC(=O)/C(=N/OC)c1cccc(C)c1CO/N=C(\C)c1ccc(-c2ccccc2)cc1OC(F)(F)F` ?
Response given: bin C

Challenge: Each compound maps to one class by % PHAKPA (F129L) Disease level P6 at 4 ppm. Which class for `CNC(=O)/C(=N/OC)c1cccc(C)c1CO/N=C(\CC(F)(F)F)c1ccccc1C` ?
Response given: bin C

---

# Test system: Phakopsora pachyrhizi (F129L)
# procedure-text: Protective control of soybean rust on soybeans (PHAKPA P2)
# Format: in vivo
# test-settings: protective P2, 16 ppm, soybean rust F129L isolate
property-label: % PHAKPA (F129L) Disease level P2 at 16 ppm (%)
One number for each entry, in %.

molecule | meas-value
CO/N=C(/C(=O)OC)c1cccc(C)c1CO/N=C(\C)c1ccc(Br)cc1C(F)(F)F [compound 257] | 35
CNC(=O)/C(=N/OC)c1cccc(C)c1CO/N=C(\C)c1cc(F)ccc1F [compound 131] | 0
CO/N=C(/C(=O)OC)c1cccc(C)c1CO/N=C(\C)c1ccc(OC(F)(F)F)cc1C [compound 259] | 17

// moving on: another record for % PHAKPA (F129L) Disease level P2 at 16 ppm
Challenge: For the molecule CNC(=O)/C(=N/OC)c1cccc(C)c1CO/N=C(\C)c1c(F)cc(Br)cc1C(F)(F)F [compound 358] , what % PHAKPA (F129L) Disease level P2 at 16 ppm is on record?
Response given: 17

---

# Tested on: Phakopsora pachyrhizi (F129L)
# procedure-text: Protective control of soybean rust on soybeans (PHAKPA P2)
# Format: in vivo
# test-settings: protective P2, 16 ppm, soybean rust F129L isolate
% PHAKPA (F129L) Disease level P2 at 16 ppm strictly under 4% means True; at 4% or over means False.

item-smiles | test-target | assigned-category
CNC(=O)/C(=N/OC)c1cccc(C)c1CO/N=C(\C)c1c(F)cccc1C(F)(F)F | Phakopsora pachyrhizi (F129L) | True
CO/N=C(/C(=O)OC)c1cccc(C)c1CO/N=C(\C)c1c(F)cc(F)cc1C(F)(F)F | Phakopsora pachyrhizi (F129L) | False
CO/N=C(/C(=O)OC)c1cccc(C)c1CO/N=C(\C)c1c(F)cccc1Cl | Phakopsora pachyrhizi (F129L) | False
CNC(=O)/C(=N/OC)c1cccc(C)c1CO/N=C(\CC1CC1)c1cccc(C(F)(F)F)c1 | Phakopsora pachyrhizi (F129L) | False
CNC(=O)/C(=N/OC)c1cccc(C)c1CO/N=C(\C)c1ccc(C)cc1C(F)(F)F | Phakopsora pachyrhizi (F129L) | True
CO/N=C(/C(=O)OC)c1cccc(C)c1CO/N=C(\C)c1cc(Cl)ccc1C(F)(F)F | Phakopsora pachyrhizi (F129L) | False

Consider the additional compound presented here.
Challenge: Criterion: % PHAKPA (F129L) Disease level P2 at 16 ppm strictly below 4%. Is it met by `CO/N=C(\C)COc1cccc(/C(C)=N/OCc2c(C)cccc2/C(=N\OC)C(=O)OC)c1` ?
Response given: False
